# experimentNotes: Single dose oral PK study in male Sprague Dawley rats (plasma by LC-MS/MS)
# Assay type: in vivo
# conditionContext: male, Sprague Dawley, rat, in vivo; PRX-P6-011 oral 5 mg/kg b.w., 4.00 h, mean; read-out: Plasma concentrations of PRX-P6-011
resultType: concentration at 4 h (ng/mL)
# output: bare number, implied unit ng/mL

For CCN(C(=O)[C@@H](NC(=O)[C@@H](N)C(C)C)C(C)C)C1C2CCC(C2)C1c1ccccc1 (single isomer, unassigned) , what is its reported concentration at 4 h?
0

---

# experimentNotes: Single dose oral PK study in male Sprague Dawley rats (plasma by LC-MS/MS)
# Type: in vivo
# conditionContext: male, Sprague Dawley, rat, in vivo, po, 5 mg/kg, single oral dose 5 mg/kg b.w., mean plasma PK parameters (mean ± SD); read-out: AUCinf
resultType: AUC(0-inf) (ng·h/mL)
# output: bare number, implied unit ng·h/mL

For CCN[C@H]1[C@H]2CC[C@H](C2)[C@@H]1c1ccccc1 [PRX-002 (+) Isomer, reference compound] , what is its reported AUC(0-inf)?
151

---

# experimentNotes: Single dose oral PK study in male Sprague Dawley rats (plasma by LC-MS/MS)
# Assay type: in vivo
# conditionContext: male, Sprague-Dawley, rat, in vivo, po, 5 mg/kg, PRX-P5-006 oral 5 mg/kg b.w., individual animals; read-out: T1/2 of PRX-P5-006 (converted)
resultType: half-life (h)
# output: bare number, implied unit h

For CCCCCCCCCCCCCCCCCC(=O)OC(C)OC(=O)N(CC)C1C2CCC(C2)C1c1ccccc1 (single isomer, unassigned) [PRX-P5-006] , what is its reported half-life?
3.5

---

# experimentNotes: Single dose intravenous PK study in male Sprague Dawley rats (plasma by LC-MS/MS)
# Assay type: in vivo
# conditionContext: male, Sprague-Dawley, rat, plasma, iv, 2 mg/kg, PRX-P5-011 IV 2 mg/kg b.w., 2.00 h, individual animals
resultType: concentration at 2 h (ng/mL)
# output: bare number, implied unit ng/mL

For CCCCCCCCCCCCCCCCCC(=O)OC(C)OC(=O)N(CC)C1C2CCC(C2)C1c1ccccc1 (single isomer, unassigned) , what is its reported concentration at 2 h?
0

---

# experimentNotes: Single dose oral PK study in male Sprague Dawley rats (plasma by LC-MS/MS)
# Assay type: in vivo
# conditionContext: male, Sprague-Dawley, rat, in vivo; PRX-P4-003 oral 5 mg/kg, mean; read-out: Tmax of PRX-P4-003
resultType: Tmax (h)
# output: bare number, implied unit h

For CCCCCCCCCCCCCCCCCC(=O)OCOC(=O)N(CC)C1C2CCC(C2)C1c1ccccc1 (single isomer, unassigned) [PRX-P4-003] , what is its reported Tmax?
0

---

# experimentNotes: Single dose intravenous PK study in male Sprague Dawley rats (plasma by LC-MS/MS)
# Type: in vivo
# conditionContext: male, Sprague-Dawley, rat, plasma, iv, 2 mg/kg, PRX-P4-003 IV 2 mg/kg, mean; read-out: MRTlast of PRX-P4-003
resultType: MRT last (h)
# output: bare number, implied unit h

For CCCCCCCCCCCCCCCCCC(=O)OCOC(=O)N(CC)C1C2CCC(C2)C1c1ccccc1 (single isomer, unassigned) , what is its reported MRT last?
1.84
